Would you mind telling me the reported growth inhibition of each entry?
# Test system: SUDIPGIV (diffuse intrinsic pontine glioma line)
# TEST: growth inhibition (% activity, log2 RLU normalised to DMSO / staurosporine); higher = more growth inhibition
# CONDITION DESCRIPTION: 33 µM
All answers are understood in %, so give the number only.

The reported growth inhibition of the compound Cc1cccc(C)c1NC(=O)CN1CCCC1=O was -2.89

The reported growth inhibition of the compound O=C(O[C@H]1C[N+]2(CCCOc3ccccc3)CCC1CC2)C(O)(c1cccs1)c1cccs1 was -1.77

Lab note: measured growth inhibition of COc1ccc(C(=O)N2CCCC2=O)cc1 was -2.06

// field: growth inhibition; key: CC(=O)Nc1cc([As](=O)(O)O)ccc1O ; value = -1.04

Lookup result for CN(C)C1C(=O)C(C(N)=O)=C(O)C2(O)C(=O)C3=C(O)c4c(O)cccc4C(C)(O)C3CC12 (centres undefined) ; measured growth inhibition: 2.83

Lookup result for C[C@]12CC[C@H]3[C@@H](CC[C@@]45O[C@@H]4C(O)=C(C#N)C[C@]35C)[C@@H]1CC[C@@H]2O ; measured growth inhibition: -0.766

In plain terms, CCC1(c2ccc(N)cc2)CCC(=O)NC1=O (centres undefined) has a documented growth inhibition of -1.8

The recorded growth inhibition for entry O=c1[nH]c2ccccc2n1CCCN1CCC(n2c(=O)[nH]c3cc(Cl)ccc32)CC1 equals -1.4

Value of growth inhibition reported for the compound COC(=O)C1=CCCN(C)C1 is 0.353

Record CC(=O)OC1CN2CCC1CC2 (centres undefined) . Reported growth inhibition: -0.883

Lab note: CN(C)C(=O)Oc1cccc([N+](C)(C)C)c1 gave growth inhibition of -1.46

The compound listed as C=CCN.ClCC1CO1 (centres undefined) has a reported growth inhibition of 0.558

CC(C)c1c(CN(C)C(C)Cc2ccccc2)n(C)n(-c2ccccc2)c1=O (centres undefined) has a reported growth inhibition of 1.4

Recorded result, C[N+]1(C)[C@@H]2C[C@@H](OC(=O)[C@H](CO)c3ccccc3)C[C@H]1[C@@H]1O[C@@H]12 , growth inhibition: -0.286

What the record says about CCCN1C[C@H](CSC)C[C@@H]2c3cccc4[nH]cc(c34)C[C@H]21 : growth inhibition is 0.236

What the record says about CNC(=O)Oc1ccc2c(c1)[C@]1(C)CCN(C)[C@@H]1N2C : growth inhibition is -0.781

# growth inhibition (compound: NCC(CC(=O)O)c1ccc(Cl)cc1 (centres undefined) ) is 2.9

Looking up C[C@@H]1O[C@@H](O[C@H]2C[C@@H](O)[C@]3(CO)[C@H]4[C@H](O)C[C@]5(C)[C@@H](C6=CC(=O)OC6)CC[C@]5(O)[C@@H]4CC[C@]3(O)C2)[C@H](O)[C@H](O)[C@H]1O , I see its growth inhibition listed as 60.1

The compound listed as Cc1c(N)nc(C(CC(N)=O)NCC(N)C(N)=O)nc1C(=O)NC(C(=O)NC(C)C(O)C(C)C(=O)NC(C(=O)NCCc1nc(-c2nc(C(=O)NCCC[S+](C)C)cs2)cs1)C(C)O)C(O[C@@H]1O[C@@H](CO)[C@@H](O)[C@H](O)[C@@H]1O[C@H]1O[C@H](CO)[C@@H](O)[C@H](OC(N)=O)[C@@H]1O)c1cnc[nH]1 (some centres undefined) has a reported growth inhibition of 32.5

Sourced from the supplement of paper PMC8253809
